System: PC-9
Test: CCK8 cell viability assay, PC-9
Type: cell-based, Human
Conditions: PC9, 20 µM, 48 h, CCK8; control = 100%
Procedure: At first, CCK8 assay was carried out to evaluate the anti-proliferative activity of dolutegravir-1,2,3-triazole derivatives against different cancer cell lines. The results of cell viability of three lung cancer cell lines A549, PC-9 and H460 in the presence of compounds 9 and 10 are summarized in Table 2. Cells were treated with different compounds at the concentration of 20 µM for 48 h. […] Absorbance was measured using a microplate spectrophotometer (Thermo) at 450 nm. […]
measuredMetric: Cell viability (100%)
Numeric only. Scale: %

Before answering, review these 2 worked examples.
INSERT INTO measurements (smilesnotation, endpointresult) VALUES
  ('COc1cccc(-n2cc(-c3cccc(NC(=O)c4cn5c(c(OC)c4=O)C(=O)N4[C@H](C)CCO[C@H]4C5)c3)nn2)c1', 47.77),
  ('COc1c2n(cc(C(=O)Nc3cccc(-c4cn(-c5ccc(C)cc5)nn4)c3)c1=O)C[C@@H]1OCC[C@@H](C)N1C2=O', 79.67);

Return reported Cell viability (100%). Input compound: COc1ccc(-n2cc(-c3cccc(NC(=O)c4cn5c(c(OC)c4=O)C(=O)N4[C@H](C)CCO[C@H]4C5)c3)nn2)cc1OC
85.93

---

test system: H460; experiment: CCK8 cell viability assay, H460; format: cell-based, Human; conditions: H460, 20 µM, 48 h, CCK8; control = 100%
T if Cell viability (100%) is below 30%. F if not; exact matches included in F.

Field: example entries. Status: answers known.
INSERT INTO results (compound, labelclass) VALUES
  ('COc1c2n(cc(C(=O)Nc3cccc(-c4cn(-c5ccccc5OC(F)(F)F)nn4)c3)c1=O)C[C@@H]1OCC[C@@H](C)N1C2=O', 'T'),
  ('COc1c2n(cc(C(=O)Nc3cccc(-c4cn(-c5cccc(C)c5)nn4)c3)c1=O)C[C@@H]1OCC[C@@H](C)N1C2=O', 'F'),
  ('COc1c2n(cc(C(=O)Nc3cccc(-c4cn(Cc5cccc(Br)c5)nn4)c3)c1=O)C[C@@H]1OCC[C@@H](C)N1C2=O [Compound 10e]', 'T'),
  ('COc1c2n(cc(C(=O)Nc3cccc(-c4cn(-c5c(C)cc(C)cc5C)nn4)c3)c1=O)C[C@@H]1OCC[C@@H](C)N1C2=O', 'F'),
  ('COc1c2n(cc(C(=O)Nc3cccc(-c4cn(-c5ccccc5Cl)nn4)c3)c1=O)C[C@@H]1OCC[C@@H](C)N1C2=O', 'F');

# check: Cell viability (100%) < 30% for COc1c2n(cc(C(=O)Nc3cccc(-c4cn(-c5cccc([N+](=O)[O-])c5C)nn4)c3)c1=O)C[C@@H]1OCC[C@@H](C)N1C2=O
F

---

system: H460; assay: CCK8 cell viability assay, H460; format: cell-based, Human; conditions: H460, 20 µM, 48 h, CCK8; control = 100%
measuredMetric: Cell viability (100%)
Numeric only. Scale: %

Before answering, review these 5 worked examples.
INSERT INTO measurements (compound, subjectoftest, endpointresult) VALUES
  ('COc1c2n(cc(C(=O)Nc3cccc(-c4cn(-c5ccc(C(C)(C)C)cc5)nn4)c3)c1=O)C[C@@H]1OCC[C@@H](C)N1C2=O', 'H460', 24.58),
  ('CCOc1ccc(-n2cc(-c3cccc(NC(=O)c4cn5c(c(OC)c4=O)C(=O)N4[C@H](C)CCO[C@H]4C5)c3)nn2)cc1', 'H460', 52.87),
  ('COc1c2n(cc(C(=O)Nc3cccc(-c4cn(-c5cccc(C(F)(F)F)c5)nn4)c3)c1=O)C[C@@H]1OCC[C@@H](C)N1C2=O', 'H460', 5.63),
  ('COc1c2n(cc(C(=O)Nc3cccc(-c4cn(-c5cc(C(F)(F)F)cc(C(F)(F)F)c5)nn4)c3)c1=O)C[C@@H]1OCC[C@@H](C)N1C2=O', 'H460', 117.07),
  ('COc1c2n(cc(C(=O)Nc3cccc(-c4cn(Cc5cc(Br)cc(Br)c5)nn4)c3)c1=O)C[C@@H]1OCC[C@@H](C)N1C2=O [Compound 10a]', 'H460', 82.32);

Return reported Cell viability (100%). Input compound: COc1c2n(cc(C(=O)Nc3cccc(-c4cn(Cc5ccccc5C(F)(F)F)nn4)c3)c1=O)CC1OCCC(C)N1C2=O (stereo not shown)
28.10

Return reported Cell viability (100%). Input compound: COc1ccc(-n2cc(-c3cccc(NC(=O)c4cn5c(c(OC)c4=O)C(=O)N4C(C)CCOC4C5)c3)nn2)cc1 (stereo not shown)
108.05

Return reported Cell viability (100%). Input compound: COc1c2n(cc(C(=O)Nc3cccc(-c4cn(-c5cc(C(F)(F)F)ccc5C(F)(F)F)nn4)c3)c1=O)C[C@@H]1OCC[C@@H](C)N1C2=O
17.63

Return reported Cell viability (100%). Input compound: COc1c2n(cc(C(=O)Nc3cccc(-c4cn(-c5ccccc5Br)nn4)c3)c1=O)C[C@@H]1OCC[C@@H](C)N1C2=O
31.00

Return reported Cell viability (100%). Input compound: COc1c2n(cc(C(=O)Nc3cccc(-c4cn(-c5ccc(C(F)(F)F)cc5)nn4)c3)c1=O)C[C@@H]1OCC[C@@H](C)N1C2=O
69.71

Return reported Cell viability (100%). Input compound: COc1c2n(cc(C(=O)Nc3cccc(-c4cn(-c5ccccc5)nn4)c3)c1=O)C[C@@H]1OCC[C@@H](C)N1C2=O
87.72

Return reported Cell viability (100%). Input compound: COc1ccc(-n2cc(-c3cccc(NC(=O)c4cn5c(c(OC)c4=O)C(=O)N4[C@H](C)CCO[C@H]4C5)c3)nn2)cc1OC
92.89

Return reported Cell viability (100%). Input compound: COc1c2n(cc(C(=O)Nc3cccc(-c4cn(Cc5ccccc5)nn4)c3)c1=O)C[C@@H]1OCC[C@@H](C)N1C2=O [Compound 10b]
55.00

---

system: A549; assay: CCK8 cell viability assay, A549; format: cell-based, Human; settings: A549, 20 µM, 48 h, CCK8; control = 100%
satisfied if Cell viability (100%) is below 70%. not satisfied if not; exact matches included in not satisfied.

Field: example entries. Status: answers known.
INSERT INTO measurements (compound, labelclass) VALUES
  ('COc1c2n(cc(C(=O)Nc3cccc(-c4cn(Cc5cc(Br)cc(Br)c5)nn4)c3)c1=O)C[C@@H]1OCC[C@@H](C)N1C2=O [Compound 10a]', 'not satisfied'),
  ('CCc1ccccc1-n1cc(-c2cccc(NC(=O)c3cn4c(c(OC)c3=O)C(=O)N3[C@H](C)CCO[C@H]3C4)c2)nn1', 'not satisfied'),
  ('COc1ccccc1-n1cc(-c2cccc(NC(=O)c3cn4c(c(OC)c3=O)C(=O)N3[C@H](C)CCO[C@H]3C4)c2)nn1', 'satisfied'),
  ('COc1c2n(cc(C(=O)Nc3cccc(-c4cn(-c5ccc(C)cc5)nn4)c3)c1=O)C[C@@H]1OCC[C@@H](C)N1C2=O', 'not satisfied'),
  ('COc1c2n(cc(C(=O)Nc3cccc(-c4cn(Cc5cccc(Br)c5)nn4)c3)c1=O)C[C@@H]1OCC[C@@H](C)N1C2=O [Compound 10e]', 'not satisfied'),
  ('COc1c2n(cc(C(=O)Nc3cccc(-c4cn(-c5cc(C(F)(F)F)ccc5C(F)(F)F)nn4)c3)c1=O)C[C@@H]1OCC[C@@H](C)N1C2=O', 'satisfied'),
  ('COc1c2n(cc(C(=O)Nc3cccc(-c4cn(-c5cccc(C)c5)nn4)c3)c1=O)C[C@@H]1OCC[C@@H](C)N1C2=O', 'satisfied'),
  ('COc1c2n(cc(C(=O)Nc3cccc(-c4cn(-c5cccc([N+](=O)[O-])c5C)nn4)c3)c1=O)C[C@@H]1OCC[C@@H](C)N1C2=O', 'satisfied'),
  ('COc1ccc(-n2cc(-c3cccc(NC(=O)c4cn5c(c(OC)c4=O)C(=O)N4[C@H](C)CCO[C@H]4C5)c3)nn2)cc1OC', 'not satisfied'),
  ('COc1c2n(cc(C(=O)Nc3cccc(-c4cn(-c5ccccc5Br)nn4)c3)c1=O)C[C@@H]1OCC[C@@H](C)N1C2=O', 'satisfied');

# check: Cell viability (100%) < 70% for COc1c2n(cc(C(=O)Nc3cccc(-c4cn(-c5cc(C(F)(F)F)cc(C(F)(F)F)c5)nn4)c3)c1=O)C[C@@H]1OCC[C@@H](C)N1C2=O
not satisfied

# check: Cell viability (100%) < 70% for COc1c2n(cc(C(=O)Nc3cccc(-c4cn(-c5ccccc5C)nn4)c3)c1=O)C[C@@H]1OCC[C@@H](C)N1C2=O
not satisfied

# check: Cell viability (100%) < 70% for COc1c2n(cc(C(=O)Nc3cccc(-c4cn(-c5ccccc5C(F)(F)F)nn4)c3)c1=O)C[C@@H]1OCC[C@@H](C)N1C2=O
satisfied

# check: Cell viability (100%) < 70% for COc1c2n(cc(C(=O)Nc3cccc(-c4cn(-c5ccc(C(C)(C)C)cc5)nn4)c3)c1=O)C[C@@H]1OCC[C@@H](C)N1C2=O
satisfied

# check: Cell viability (100%) < 70% for COc1c2n(cc(C(=O)Nc3cccc(-c4cn(Cc5ccccc5)nn4)c3)c1=O)C[C@@H]1OCC[C@@H](C)N1C2=O [Compound 10b]
not satisfied

# check: Cell viability (100%) < 70% for COc1c2n(cc(C(=O)Nc3cccc(-c4cn(-c5ccccc5OC(F)(F)F)nn4)c3)c1=O)C[C@@H]1OCC[C@@H](C)N1C2=O
satisfied

# check: Cell viability (100%) < 70% for COc1c2n(cc(C(=O)Nc3cccc(-c4cn(Cc5ccccc5F)nn4)c3)c1=O)CC1OCCC(C)N1C2=O (stereo not drawn) [Compound 10f]
not satisfied

# check: Cell viability (100%) < 70% for COc1c2n(cc(C(=O)Nc3cccc(-c4cn(-c5ccccc5I)nn4)c3)c1=O)C[C@@H]1OCC[C@@H](C)N1C2=O
satisfied

# check: Cell viability (100%) < 70% for COc1cccc(-n2cc(-c3cccc(NC(=O)c4cn5c(c(OC)c4=O)C(=O)N4[C@H](C)CCO[C@H]4C5)c3)nn2)c1
not satisfied
